The reported numbers originate from patent US20200289144A1.

Answer each item with its documented cytotoxicity score (microscopic examination).
# Test system: human MRC-5 fibroblasts
# experiment-summary: Qualitative evaluation of cytotoxicity by microscopic examination
# protocol-conditions: 30 min exposure, mean ± SD of scores
Answers are plain numbers.

These solved cases illustrate the format of a correct answer.
>>> value_observed("[Cl-].[Na+] [NaCl 1.76%, NaCl]")
0.0
>>> value_observed("O=S(=O)([O-])CCS.[Na+] [Mesna 20%, Sodium 2-mercaptoethanesulfonate]")
1.0
>>> value_observed("[Cl-].[Na+] [NaCl 7.06%, NaCl]")
0.5
>>> value_observed("Oc1ccccc1")
3.0
>>> value_observed("O=S(=O)([O-])CCS.[Na+] [Mesna 5%, Sodium 2-mercaptoethanesulfonate]")
1.5
>>> value_observed("O=S(=O)([O-])CCS.[Na+] [Mesna 10%, Sodium 2-mercaptoethanesulfonate]")
0.0

Kindly consider the entry below.
Query: For [Cl-].[Na+] [NaCl 3.53%, NaCl] , what is its reported cytotoxicity score (microscopic examination)?
Response: 0.0
